Can you tell me pKi for the items I'm about to list?
# assayed_system: Progesterone receptor (Homo sapiens, UniProt P06401)
# Sequence (P06401 whole entry): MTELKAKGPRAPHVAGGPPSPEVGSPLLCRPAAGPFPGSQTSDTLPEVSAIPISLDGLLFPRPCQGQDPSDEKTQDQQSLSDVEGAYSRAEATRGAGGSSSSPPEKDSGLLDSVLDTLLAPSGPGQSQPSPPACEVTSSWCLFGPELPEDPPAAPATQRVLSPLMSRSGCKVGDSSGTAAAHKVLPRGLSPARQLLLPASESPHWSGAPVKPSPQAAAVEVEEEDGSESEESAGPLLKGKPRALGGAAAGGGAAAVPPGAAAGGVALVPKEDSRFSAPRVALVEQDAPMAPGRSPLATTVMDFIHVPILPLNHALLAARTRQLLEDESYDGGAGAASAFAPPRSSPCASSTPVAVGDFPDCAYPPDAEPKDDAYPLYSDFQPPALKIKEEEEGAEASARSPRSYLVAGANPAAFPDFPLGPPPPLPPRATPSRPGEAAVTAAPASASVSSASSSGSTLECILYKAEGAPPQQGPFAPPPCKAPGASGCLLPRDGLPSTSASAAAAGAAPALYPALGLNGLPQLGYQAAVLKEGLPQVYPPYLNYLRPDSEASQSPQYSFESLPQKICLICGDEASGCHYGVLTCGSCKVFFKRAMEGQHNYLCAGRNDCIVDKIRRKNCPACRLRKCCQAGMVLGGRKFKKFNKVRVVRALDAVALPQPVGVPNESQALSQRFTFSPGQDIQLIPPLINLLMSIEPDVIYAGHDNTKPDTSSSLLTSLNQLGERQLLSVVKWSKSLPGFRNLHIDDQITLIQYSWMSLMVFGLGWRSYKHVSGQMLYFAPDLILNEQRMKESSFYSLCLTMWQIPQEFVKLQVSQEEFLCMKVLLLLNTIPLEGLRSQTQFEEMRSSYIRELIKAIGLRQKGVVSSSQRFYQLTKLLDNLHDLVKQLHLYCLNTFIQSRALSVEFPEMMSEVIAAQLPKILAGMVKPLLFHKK
Would you please state pKi, meaning minus log10 of the concentration in mol/L, as a bare number?

Consider CC(C)(C(=O)Nc1nncs1)[C@H]1c2ccccc2Oc2cc(O)ccc21 . Its measured pKi is 7.28

Consider CC(C)(C(=O)Nc1nccs1)[C@@H](c1ccccc1)c1ccc(O)c(Br)c1 . Its measured pKi is 7.51

Consider Cc1cc([C@H](c2ccccc2)C(C)(C)C(=O)Nc2nncs2)ccc1O . Its measured pKi is 6.85

Consider CC(C)(C(=O)Nc1nccs1)[C@@H](c1ccccc1)c1ccc(O)cc1 . Its measured pKi is 6.56

----------
# assayed_system: Glucocorticoid receptor (Homo sapiens) (UniProt P04150)
# Sequence (whole entry): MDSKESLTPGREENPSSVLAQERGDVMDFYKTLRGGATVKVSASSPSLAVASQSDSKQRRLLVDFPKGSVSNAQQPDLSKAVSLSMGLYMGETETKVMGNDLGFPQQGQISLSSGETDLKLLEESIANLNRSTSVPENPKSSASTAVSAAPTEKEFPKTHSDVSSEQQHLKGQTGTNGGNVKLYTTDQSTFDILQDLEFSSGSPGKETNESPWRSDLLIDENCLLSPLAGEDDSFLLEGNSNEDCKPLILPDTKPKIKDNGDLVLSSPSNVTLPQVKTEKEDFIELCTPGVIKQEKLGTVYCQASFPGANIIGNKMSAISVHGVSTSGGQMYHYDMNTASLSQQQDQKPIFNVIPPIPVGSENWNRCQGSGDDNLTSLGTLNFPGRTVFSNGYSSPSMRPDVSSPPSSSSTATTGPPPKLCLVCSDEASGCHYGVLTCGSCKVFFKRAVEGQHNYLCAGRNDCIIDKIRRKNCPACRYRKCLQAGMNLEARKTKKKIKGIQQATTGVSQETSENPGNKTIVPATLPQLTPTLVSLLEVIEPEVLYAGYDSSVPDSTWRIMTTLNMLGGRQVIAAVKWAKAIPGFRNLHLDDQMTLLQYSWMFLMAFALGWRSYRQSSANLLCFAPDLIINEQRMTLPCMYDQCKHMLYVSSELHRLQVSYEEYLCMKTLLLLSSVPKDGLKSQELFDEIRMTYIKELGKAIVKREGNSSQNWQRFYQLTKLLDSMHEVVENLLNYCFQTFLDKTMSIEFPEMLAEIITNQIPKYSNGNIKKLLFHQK
# assay_comment: Transactivation activity at glucocorticoid receptor in human 13D3/Huh7 cells assessed as induction of tyrosine aminotransferase activity after 24 hrs relative to Dexamethasone
# Format: cell-based
# experimental_parameters: Huh-7
Can you tell me Efficacy for the items I'm about to list?
Kindly report the value followed by its unit.

Consider CC(C)(C(=O)Nc1nncs1)[C@H]1c2ccccc2Oc2cc(O)ccc21 . Its measured Efficacy is 45%

Consider CC(C)(C(=O)Nc1nccs1)[C@@H](c1ccccc1)c1ccc(O)c(Br)c1 . Its measured Efficacy is 29%

Consider CC(C)(C(=O)Nc1nccs1)[C@H]1c2ccccc2Oc2cc(O)ccc21 . Its measured Efficacy is 39%

Consider CC(C)(C(=O)Nc1nccs1)[C@@H](c1ccccc1)c1ccc(O)c(C#N)c1 . Its measured Efficacy is 16%

Consider CC(C)(C(=O)Nc1nccs1)[C@@H](c1ccccc1)c1ccc(O)c(F)c1 . Its measured Efficacy is 48%

Origin of measurements: ChEMBL document CHEMBL1799968
